Values compiled from ChEMBL document CHEMBL1140992.

- TARGET ENTITY: 72 kDa type IV collagenase (Homo sapiens)
- ASSAY: Inhibition recombinant MMP2 at 100 uM
- Set-up: scale not given: the % may be the effect or the level left
Overview of reported Activity across a group of molecules:
# unit: % | format: bare number

Guide cases for Activity, answers given:
CCN1C(=O)/C(=C2/Sc3ccccc3N2CCCS(=O)(=O)O)SC1=S    80
O=C1NC(=O)C(CCc2ccncc2)(c2ccccc2)C(=O)N1    17
COc1ccc(CSc2nc(C)cc(O)n2)cc1    47

Report Activity for O=C1NC(=O)C(CCc2ccncc2)(C2CCCCC2)C(=O)N1 please.
49

Report Activity for CCCCCCOc1ccc(C(CC(=O)O)C(N)=O)cc1 (stereo unspecified) please.
0

Report Activity for CCOC(=O)/C(C#N)=C1/C=Nc2ccccc2N1 please.
100

###

- TARGET ENTITY: Stromelysin-1 (Homo sapiens) (UniProt P08254)
- Sequence (P08254 100-477 limits assumed): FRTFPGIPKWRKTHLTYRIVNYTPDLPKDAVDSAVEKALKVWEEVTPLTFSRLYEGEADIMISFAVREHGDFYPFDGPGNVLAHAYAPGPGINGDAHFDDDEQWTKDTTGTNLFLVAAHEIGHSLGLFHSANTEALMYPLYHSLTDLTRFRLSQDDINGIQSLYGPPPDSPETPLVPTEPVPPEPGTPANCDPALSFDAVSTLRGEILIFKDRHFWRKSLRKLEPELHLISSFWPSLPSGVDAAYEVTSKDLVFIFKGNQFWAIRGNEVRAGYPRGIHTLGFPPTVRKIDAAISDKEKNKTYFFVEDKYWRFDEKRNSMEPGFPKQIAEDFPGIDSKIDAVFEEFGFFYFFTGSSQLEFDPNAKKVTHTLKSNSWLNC
- ASSAY: Inhibition recombinant MMP3 at 100 uM
- Design: scale not given: the % may be the effect or the level left
RECORDED ENDPOINT: Activity

Guide cases for Activity, answers given:
O=C1NC(=O)C(CCc2ccncc2)(c2ccccc2)C(=O)N1    87%
COc1ccc(CSc2nc(C)cc(O)n2)cc1    97%
CCCCCCOc1ccc(C(CC(=O)O)C(N)=O)cc1 (configuration not stated)    43%
O=C(CSCc1nc(O)n[nH]1)NCCOc1cccc(Oc2ccccc2)c1    96%
C=CCN1C(=O)/C(=C2/Sc3ccccc3N2CCCS(=O)(=O)O)SC1=S    100%
COC(=O)c1ccc(CSc2nc(O)c3c(-c4cccs4)csc3n2)o1    92%
COc1cc(OC)cc(-c2nnc(Nc3nc4c(F)cccc4s3)o2)c1    95%
O=C(O)CCC(NS(=O)(=O)c1ccc(-c2ccccc2)cc1)C(=O)O (configuration not stated)    63%
Cc1nn(-c2ccccc2)c2sc(-c3nnc(S)o3)cc12    75%
CCOC(=O)/C(C#N)=C1/C=Nc2ccccc2N1    96%

Report Activity for CCN1C(=O)/C(=C2/Sc3ccccc3N2CCCS(=O)(=O)O)SC1=S please.
90%

Report Activity for O=C1NC(=O)C(CCc2ccncc2)(C2CCCCC2)C(=O)N1 please.
96%

###

- TARGET ENTITY: Collagenase 3 (Homo sapiens)
- ASSAY: Activity of human recombinant MMP13
- Parameters: concentration or dose not given beside the values
Each entry gets Not fulfilled if its Activity stays under 20%, and Fulfilled if its Activity is 20% or above.

Consider the worked cases shown below.
CCCCCCOc1ccc(C(CC(=O)O)C(N)=O)cc1 (stereo unspecified)    Not fulfilled
Cc1nn(-c2ccccc2)c2sc(-c3nnc(S)o3)cc12    Fulfilled
O=C(CSCc1nc(O)n[nH]1)NCCOc1cccc(Oc2ccccc2)c1    Fulfilled
C=CCN1C(=O)/C(=C2/Sc3ccccc3N2CCCS(=O)(=O)O)SC1=S    Fulfilled

Say whether COc1ccc(CSc2nc(C)cc(O)n2)cc1 shows Activity of 20% or more.
Fulfilled

Say whether O=C(O)CCC(NS(=O)(=O)c1ccc(-c2ccccc2)cc1)C(=O)O (stereo unspecified) shows Activity of 20% or more.
Not fulfilled

###

- TARGET ENTITY: Matrix metalloproteinase-9 (Homo sapiens) (UniProt P14780)
- Sequence (P14780 whole entry): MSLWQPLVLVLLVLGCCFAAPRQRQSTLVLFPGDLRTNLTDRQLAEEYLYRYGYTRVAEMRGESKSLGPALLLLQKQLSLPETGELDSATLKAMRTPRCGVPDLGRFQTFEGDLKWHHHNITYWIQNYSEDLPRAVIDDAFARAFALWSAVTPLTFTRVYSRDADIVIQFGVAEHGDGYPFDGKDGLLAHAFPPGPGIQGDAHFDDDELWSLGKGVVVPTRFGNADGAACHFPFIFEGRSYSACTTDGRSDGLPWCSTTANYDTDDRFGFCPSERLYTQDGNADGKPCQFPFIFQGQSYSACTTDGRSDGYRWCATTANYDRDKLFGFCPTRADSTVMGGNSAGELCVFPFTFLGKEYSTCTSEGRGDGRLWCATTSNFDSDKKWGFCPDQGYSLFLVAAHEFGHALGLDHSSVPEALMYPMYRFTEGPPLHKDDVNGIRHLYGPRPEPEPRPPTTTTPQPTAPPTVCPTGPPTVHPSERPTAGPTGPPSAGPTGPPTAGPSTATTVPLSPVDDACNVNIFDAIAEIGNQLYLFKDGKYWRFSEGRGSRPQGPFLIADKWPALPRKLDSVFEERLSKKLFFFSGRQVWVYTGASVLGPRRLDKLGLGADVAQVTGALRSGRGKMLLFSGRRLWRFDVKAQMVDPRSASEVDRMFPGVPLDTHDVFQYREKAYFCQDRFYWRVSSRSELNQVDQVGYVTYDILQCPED
- ASSAY: Inhibition recombinant MMP9 at 100 uM
- Set-up: scale not given: the % may be the effect or the level left
Each entry gets F if its Activity stays under 70%, and T if its Activity is 70% or above.

Consider the worked cases shown below.
C=CCN1C(=O)/C(=C2/Sc3ccccc3N2CCCS(=O)(=O)O)SC1=S    T
O=C(CSCc1nc(O)n[nH]1)NCCOc1cccc(Oc2ccccc2)c1    F

Say whether O=C(O)CCC(NS(=O)(=O)c1ccc(-c2ccccc2)cc1)C(=O)O (configuration not stated) shows Activity of 70% or more.
F

Say whether COc1ccc(CSc2nc(C)cc(O)n2)cc1 shows Activity of 70% or more.
F

Say whether CCCCCCOc1ccc(C(CC(=O)O)C(N)=O)cc1 (configuration not stated) shows Activity of 70% or more.
F

Say whether Cc1nn(-c2ccccc2)c2sc(-c3nnc(S)o3)cc12 shows Activity of 70% or more.
T

Say whether CCOC(=O)/C(C#N)=C1/C=Nc2ccccc2N1 shows Activity of 70% or more.
T

###

Overview of reported Activity across a group of compounds:
- TARGET ENTITY: Interstitial collagenase (Homo sapiens) (UniProt P03956)
- Sequence (P03956 whole entry): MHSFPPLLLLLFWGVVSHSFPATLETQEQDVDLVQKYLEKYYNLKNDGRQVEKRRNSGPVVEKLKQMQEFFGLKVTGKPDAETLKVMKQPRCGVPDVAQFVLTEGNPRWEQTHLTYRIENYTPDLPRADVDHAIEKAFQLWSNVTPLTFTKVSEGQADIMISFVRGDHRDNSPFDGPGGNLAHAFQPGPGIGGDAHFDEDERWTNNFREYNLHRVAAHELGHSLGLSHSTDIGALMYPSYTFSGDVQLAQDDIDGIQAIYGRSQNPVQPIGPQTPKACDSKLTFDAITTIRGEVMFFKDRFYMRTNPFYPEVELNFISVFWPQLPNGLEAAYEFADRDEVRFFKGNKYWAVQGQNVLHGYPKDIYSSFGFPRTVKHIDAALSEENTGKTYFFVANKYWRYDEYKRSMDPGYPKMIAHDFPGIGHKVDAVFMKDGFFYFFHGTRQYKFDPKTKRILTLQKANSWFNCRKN
- ASSAY: Inhibition recombinant MMP1 at 100 uM
- Set-up: scale not given: the % may be the effect or the level left
# unit: % | format: bare number

Guide cases for Activity, answers given:
CCN1C(=O)/C(=C2/Sc3ccccc3N2CCCS(=O)(=O)O)SC1=S    88
COC(=O)c1ccc(CSc2nc(O)c3c(-c4cccs4)csc3n2)o1    93
Cc1nn(-c2ccccc2)c2sc(-c3nnc(S)o3)cc12    68
CCCCCCOc1ccc(C(CC(=O)O)C(N)=O)cc1 (stereo not given)    91

Report Activity for O=C(CSCc1nc(O)n[nH]1)NCCOc1cccc(Oc2ccccc2)c1 please.
85
